Endpoint: log10 IC50. System: Bcl-2-like protein 1 (Homo sapiens). Items follow.
Sequence (Q07817 whole entry): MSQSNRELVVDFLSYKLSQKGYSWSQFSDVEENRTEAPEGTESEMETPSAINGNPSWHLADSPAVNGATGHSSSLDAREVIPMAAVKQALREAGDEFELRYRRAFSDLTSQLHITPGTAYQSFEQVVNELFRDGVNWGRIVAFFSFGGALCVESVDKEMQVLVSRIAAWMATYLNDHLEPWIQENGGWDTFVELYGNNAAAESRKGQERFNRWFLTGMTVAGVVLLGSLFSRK
Heads up: the numbers are on a log10 scale; they represent IC50 in nM.

Use these answered entries as a reference point.
| compound structure | log10 IC50 |
| --- | --- |
| CCOc1ccc(Oc2ccc(S(=O)(=O)NC(=O)c3cccc(-c4ccc(Cl)c(Cl)c4)c3)cc2)cc1 | 1.93 |
| O=C(NS(=O)(=O)c1ccc(Oc2cc(C(F)(F)F)cc(C(F)(F)F)c2)cc1)c1cccc(-c2ccc(Cl)c(Cl)c2)c1 | 3.47 |
| O=C(NS(=O)(=O)c1ccc(OCc2ccccc2)cc1)c1cccc(-c2cc(Cl)cc(Cl)c2)c1 | 2.26 |
| O=C(NS(=O)(=O)c1ccc(COc2ccccc2)cc1)c1ccc(-c2cc(Cl)cc(Cl)c2)cc1 | 3.62 |
| O=C(NS(=O)(=O)c1ccc(COc2ccccc2)cc1)c1cccc(-c2ccc(C(F)(F)F)cc2)c1 | 3.79 |

Using Bcl-2-like protein 1 (Homo sapiens) as the test system, report measured log10 IC50 of O=C(NS(=O)(=O)c1ccc(COc2ccccc2)cc1)c1cccc(-c2ccc(Cl)c(Cl)c2)c1 .
3.85

Report log10 IC50 under test system Bcl-2-like protein 1 (Homo sapiens) for O=C(NS(=O)(=O)c1ccc(Oc2ccccc2)cc1)c1cccc(-c2ccc(Cl)cc2Cl)c1 .
3.29

Quote log10 IC50 with test system Bcl-2-like protein 1 (Homo sapiens) for N#Cc1c(Cl)cccc1Oc1ccc(S(=O)(=O)NC(=O)c2cccc(-c3ccc(Cl)c(Cl)c3)c2)cc1
3.43
